Reported IC50 is given for each of the following molecules.
# system under test: recombinant human GST-SYK (Homo sapiens, UniProt P43405)
# Construct: purchased Carna Biosciences 08-176
# protocol summary: Homogeneous Time-Resolved Fluorescence (HTRF) assay for the recombinant human Syk enzyme
# Assay type: biochemical
# conditions: HTRF assay, recombinant human GST-SYK; IC50 given as class symbols; read-out: rhSYK Activity

Example results:
| molecule | IC50 |
| --- | --- |
| Cn1ccc(-c2cccc(Nc3nccc(C(F)(F)F)n3)c2)cc1=O | 100 to 1000 nM |
| Cc1cc(Nc2nccc(C3CC3)n2)cc(-c2ccc(C(C)(O)[C@H]3CC[C@H](C(=O)O)CC3)nc2)c1 (stereo partly shown) [Example 9.24] | < 100 nM |
| Cc1cc(Nc2nccc(C(F)(F)F)n2)cc(-c2cnc3c(c2)OCCN3)c1 | < 100 nM |

**Q:** What is its IC50 for recombinant human GST-SYK (Homo sapiens, UniProt P43405)? Entry: Cc1cc(Nc2nccc(C(F)(F)F)n2)cc(-c2ccc(C3(O)CCC(C(=O)O)C(C)(C)C3)nc2)c1 (single isomer, unassigned) [Example 9.16]
**A:** < 100 nM

**Q:** What is its IC50 for recombinant human GST-SYK (Homo sapiens, UniProt P43405)? Entry: `CNC(=O)CN(C)c1ccc(-c2cc(C)cc(Nc3nccc(C(F)(F)F)n3)c2)cn1`
**A:** < 100 nM
